- Tested on: JeKo-1
- assaySummary: Antiproliferative activity against human JeKo1 cells after 72 hrs by CellTiter Glo assay
- Format: functional, cell-based
- cond: JeKo-1, 72 h
observationType: pIC50
Lab note — pIC50 values are minus log10 of concentrations in M.

Just so you know, measured pIC50 for O=C(N1CCN(c2ncnc3[nH]cc(Br)c23)CC1)C1(c2ccc(Cl)cc2)CCNCC1 came out at 5.92

The compound listed as O=C(N1CCN(c2ncnc3[nH]cc(Cl)c23)CC1)C1(c2ccc(Br)cc2)CCNCC1 shows pIC50 equal to 6.52

GET /value?item= CCn1c(-c2nonc2N)nc2c(C#CC(C)(C)O)ncc(OC[C@H]3CCCNC3)c21 &field=pIC50 returns 5.52

O=C(Cc1ccc(Cl)cc1)N1CCN(c2ncnc3[nH]cc(Br)c23)CC1 yielded pIC50 of 5.06

====

- targetUnderTest: RAC-alpha serine/threonine-protein kinase (Homo sapiens, UniProt P31749)
- Sequence (P31749 whole entry): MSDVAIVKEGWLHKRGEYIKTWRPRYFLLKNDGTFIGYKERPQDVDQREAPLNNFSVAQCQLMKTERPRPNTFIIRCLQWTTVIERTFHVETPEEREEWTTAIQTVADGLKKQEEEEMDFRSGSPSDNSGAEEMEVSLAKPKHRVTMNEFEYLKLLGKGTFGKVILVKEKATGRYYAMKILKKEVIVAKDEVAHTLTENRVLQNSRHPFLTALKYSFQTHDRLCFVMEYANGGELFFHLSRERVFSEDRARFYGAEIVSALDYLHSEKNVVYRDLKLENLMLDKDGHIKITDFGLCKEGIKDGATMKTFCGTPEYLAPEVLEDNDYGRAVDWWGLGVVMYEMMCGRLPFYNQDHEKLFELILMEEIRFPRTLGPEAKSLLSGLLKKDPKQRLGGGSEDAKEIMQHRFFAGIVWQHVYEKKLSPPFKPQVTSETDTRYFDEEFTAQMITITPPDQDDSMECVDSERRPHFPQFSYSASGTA
Simple rule here: IC50 less than 10 nM is True, otherwise False.

Prompt: Is it true that IC50 reported for O=C(N1CCN(c2ncnc3[nH]cc(Br)c23)CC1)C1(c2cccc(Br)c2)CCNCC1 is less than 10 nM?
Completion: True

Prompt: For O=C(N1CCN(c2ncnc3[nH]cc(Br)c23)CC1)C1(c2ccc(Cl)c(Cl)c2)CCNCC1 , is the recorded IC50 below the cut-off of 10 nM?
Completion: True

Prompt: Just wondering, is IC50 of O=C(N1CCN(c2ncnc3[nH]cc(Br)c23)CC1)C1(c2ccc(Cl)cc2)CCNCC1 below 10 nM?
Completion: True

Prompt: State whether 10 nM exceeds IC50 recorded for O=C(N1CCN(c2ncnc3[nH]cc(Cl)c23)CC1)C1(c2ccc(Br)cc2)CCNCC1 .
Completion: True

Prompt: # check: IC50 < 10 nM for O=C(N1CCN(c2ncnc3[nH]cc(Br)c23)CC1)C1(c2ccccc2)CCNCC1
Completion: False

Prompt: IC50 strictly < 10 nM for this molecule? CC(C)(C)c1ccc(C2(C(=O)N3CCN(c4ncnc5[nH]ccc45)CC3)CCNCC2)cc1
Completion: False

Prompt: Item O=C(N1CCN(c2ncnc3[nH]ccc23)CC1)C1(c2ccc(Cl)c(Cl)c2)CCNCC1 : IC50 beneath 10 nM, strictly?
Completion: False

Prompt: Find out if reported IC50 for COc1ccc(C2(C(=O)N3CCN(c4ncnc5[nH]ccc45)CC3)CCNCC2)cc1 is less than 10 nM
Completion: False

Prompt: Is 10 nM strictly greater than the molecule's reported IC50? molecule: O=C(N1CCN(c2ncnc3[nH]ccc23)CC1)C1(c2ccc(Cl)cc2)CCNCC1
Completion: False

Prompt: Hello, is IC50 of the following molecule strictly smaller than 10 nM? O=C(N1CCN(c2ncnc3[nH]cc(Cl)c23)CC1)C1(c2cccc(Br)c2)CCNCC1
Completion: True

Prompt: Confirm or reject: IC50 of COc1ccc(C2(C(=O)N3CCN(c4ncnc5[nH]cc(Br)c45)CC3)CCNCC2)cc1 lies strictly below 10 nM
Completion: False

Prompt: # TODO verify IC50 < 10 nM strictly for this molecule: O=C(N1CCN(c2ncnc3[nH]cc(Cl)c23)CC1)C1(c2ccc(Cl)cc2)CCNCC1
Completion: True

Prompt: Please state whether IC50 is below 10 nM for O=C(N1CCN(c2ncnc3[nH]ccc23)CC1)C1(c2ccc(Br)cc2)CCNCC1
Completion: False

Prompt: Record O=C(N1CCN(c2ncnc3[nH]cc(Cl)c23)CC1)C1(c2ccc(Cl)c(Cl)c2)CCNCC1 : is its IC50 strictly below 10 nM?
Completion: True

====

For each entry below, report its IC50 value.
- Tested on: Maver1
- assaySummary: Antiproliferative activity against human Maver1 cells after 72 hrs by CellTiter Glo assay
- Assay type: functional, cell-based
- cond: Maver1, 72 h
Please answer in the form of a number followed by its unit of measurement.

Input CCn1c(-c2nonc2N)nc2c(C#CC(C)(C)O)ncc(OC[C@H]3CCCNC3)c21 . Output IC50: 5.1 µM

Short answer for O=C(N1CCN(c2ncnc3[nH]cc(Br)c23)CC1)C1(c2ccc(Cl)cc2)CCNCC1 : IC50 was 1.8 µM

// IC50 lookup, compound = O=C(Cc1ccc(Cl)cc1)N1CCN(c2ncnc3[nH]cc(Br)c23)CC1 , result: 18.5 µM

Notebook: O=C(N1CCN(c2ncnc3[nH]cc(Cl)c23)CC1)C1(c2ccc(Br)cc2)CCNCC1 , IC50 read as 0.3 µM
